B1: SFRS1 (parent)
chain: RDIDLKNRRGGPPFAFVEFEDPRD

- Variants of: B1
- test_name: protein stability index of a GFP-peptide fusion (GPS, HEK-293T) (PSI 1-6); higher = more stable;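 further: lentivirally expressed fusions sorted by FACS into six bins by GFP to DsRed ratio, PSI derived from sequencing read proportions per bin multiplied by bin number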
- conditions: c terminus: a fixed tail appended
measured_parameter: protein stability index

* RDIDLTNRRGGPPFAFVEFEDPRD [K6T] | 4.02
* RDIDLKNRRGGPPFAFIEFEDPRD [V17I] | 3.97
* VDIDLKNRRGGPPFAFVEFEDPRD [R1V] | 3.97
* RDIDLKNRRGGPYFAFVEFEDPRD [P13Y] | 4
